Please respond with reported AC50 for every item in the list.

Prompt: Provide measured AC50 on UniProt P35439 for CC[C@@H](CO)NC(=O)[C@@H]1C=C2c3cccc4[nH]cc(c34)C[C@H]2N(C)C1 please.
Response: > 30 µM

Prompt: Provide measured AC50 on UniProt P35439 for CCN(CC)C(=O)C1(c2ccccc2)CC1CN (stereo unspecified) please.
Response: > 30 µM

Prompt: Provide measured AC50 on UniProt P35439 for CN(C)c1cc(NC(=O)CNC(C)(C)C)c(O)c2c1C[C@H]1C[C@H]3[C@H](N(C)C)C(O)=C(C(N)=O)C(=O)[C@@]3(O)C(O)=C1C2=O please.
Response: > 30 µM

Prompt: Provide measured AC50 on UniProt P35439 for O=C(O)CSCC(=O)NC1CCSC1=O (stereo unspecified) please.
Response: > 30 µM

Prompt: Provide measured AC50 on UniProt P35439 for [H]/N=C(\N/C(=N/[H])NCCCCCCNC(=N)NC(=N)Nc1ccc(Cl)cc1)Nc1ccc(Cl)cc1 please.
Response: > 10 µM

Prompt: Provide measured AC50 on UniProt P35439 for Oc1c(I)cc(Cl)c2cccnc12 please.
Response: 13 µM

Measured values drawn from ChEMBL document CHEMBL5291721 for this set.
